biological target: PIK3Cd (PI3Kδ) (Mus musculus); construct: Cell lysates from a human (HL60) and a mouse cell line (Raw 264.7) were prepared; endogenous in cells; host or cells: RAW264.7; test: Competition binding to affinity matrix in mixed human/mouse cell lysate, quantitative MS of species-specific peptides; conditions: Experiment 2 (human/mouse 2); HL-60 + RAW 264.7 mixed lysate
endpoint.label: IC50 (nM)
Your answer should be a plain number; it is taken to be in nM.

Specify the recorded IC50 for CC(C)(C)NS(=O)(=O)c1cncc(-c2ccc3nc(N)nn3c2)c1 [compound 1] , system: PIK3Cd (PI3Kδ) (Mus musculus).
1290

====

target: PIK3Cb (PI3Kbeta) (Mus musculus, UniProt Q8BTI9); construct: Cell lysates from a human (HL60) and a mouse cell line (Raw 264.7) were prepared; endogenous in cells; host or cells: RAW264.7; experiment: Competition binding to affinity matrix in mixed human/mouse cell lysate, quantitative MS of species-specific peptides; settings: Experiment 1 (human/mouse 1); HL-60 + RAW 264.7 mixed lysate
Sequence (Q8BTI9 whole entry): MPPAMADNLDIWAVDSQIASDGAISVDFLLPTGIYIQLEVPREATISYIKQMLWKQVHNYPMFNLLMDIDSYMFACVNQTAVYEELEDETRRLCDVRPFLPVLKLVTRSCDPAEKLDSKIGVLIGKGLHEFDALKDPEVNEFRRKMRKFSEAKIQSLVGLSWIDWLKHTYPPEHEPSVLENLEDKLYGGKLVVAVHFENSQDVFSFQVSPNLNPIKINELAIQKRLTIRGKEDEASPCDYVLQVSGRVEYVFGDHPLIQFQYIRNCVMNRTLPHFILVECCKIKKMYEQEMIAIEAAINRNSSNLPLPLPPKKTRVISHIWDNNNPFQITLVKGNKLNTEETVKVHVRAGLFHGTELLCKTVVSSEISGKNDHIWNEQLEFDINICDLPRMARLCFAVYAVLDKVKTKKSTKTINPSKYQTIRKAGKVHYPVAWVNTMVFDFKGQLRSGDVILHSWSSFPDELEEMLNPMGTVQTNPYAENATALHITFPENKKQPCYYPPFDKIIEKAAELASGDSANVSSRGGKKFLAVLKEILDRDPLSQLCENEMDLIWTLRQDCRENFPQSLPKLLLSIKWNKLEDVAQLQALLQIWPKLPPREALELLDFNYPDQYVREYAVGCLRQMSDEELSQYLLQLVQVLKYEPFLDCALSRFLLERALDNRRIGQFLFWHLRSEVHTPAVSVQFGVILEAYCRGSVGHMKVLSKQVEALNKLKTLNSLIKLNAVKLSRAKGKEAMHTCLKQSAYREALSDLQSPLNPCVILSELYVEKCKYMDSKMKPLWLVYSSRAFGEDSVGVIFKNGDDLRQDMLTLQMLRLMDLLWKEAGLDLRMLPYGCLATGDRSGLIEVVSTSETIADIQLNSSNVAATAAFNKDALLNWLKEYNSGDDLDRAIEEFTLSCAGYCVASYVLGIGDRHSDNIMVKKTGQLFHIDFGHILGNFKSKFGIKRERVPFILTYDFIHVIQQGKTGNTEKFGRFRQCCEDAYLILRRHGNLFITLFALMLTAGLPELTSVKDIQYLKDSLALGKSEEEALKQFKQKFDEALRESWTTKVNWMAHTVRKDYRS
Sequence (P26450 whole entry partner): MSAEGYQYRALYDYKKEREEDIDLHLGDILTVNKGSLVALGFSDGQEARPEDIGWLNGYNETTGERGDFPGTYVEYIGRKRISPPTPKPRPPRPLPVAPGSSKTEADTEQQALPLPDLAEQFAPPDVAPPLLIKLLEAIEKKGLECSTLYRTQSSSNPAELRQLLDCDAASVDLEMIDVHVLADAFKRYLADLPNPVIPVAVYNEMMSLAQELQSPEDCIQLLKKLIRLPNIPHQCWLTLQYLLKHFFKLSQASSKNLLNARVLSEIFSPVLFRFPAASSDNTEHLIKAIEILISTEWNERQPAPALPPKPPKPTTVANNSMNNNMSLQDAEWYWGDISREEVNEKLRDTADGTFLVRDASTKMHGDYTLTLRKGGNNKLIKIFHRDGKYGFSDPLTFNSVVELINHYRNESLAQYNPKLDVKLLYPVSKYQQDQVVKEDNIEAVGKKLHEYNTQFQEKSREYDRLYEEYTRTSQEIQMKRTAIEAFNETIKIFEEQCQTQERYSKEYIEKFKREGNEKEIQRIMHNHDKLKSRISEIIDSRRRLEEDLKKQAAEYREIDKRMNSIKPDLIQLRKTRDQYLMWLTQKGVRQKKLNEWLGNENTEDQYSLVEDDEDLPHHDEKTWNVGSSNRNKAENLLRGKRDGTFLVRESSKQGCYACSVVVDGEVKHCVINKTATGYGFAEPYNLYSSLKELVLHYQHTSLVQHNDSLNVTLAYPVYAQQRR
endpoint.label: IC50
Remember to follow the number with its unit.

Return IC50 (reported value) for this compound: CC(C)(C)NS(=O)(=O)c1cncc(-c2ccc3nc(N)nn3c2)c1
251 nM

====

target: PIK3Cb (PI3Kbeta) (Mus musculus, UniProt Q8BTI9); construct: Cell lysates from a human (HL60) and a mouse cell line (Raw 264.7) were prepared; endogenous in cells; host or cells: RAW264.7; assay: Competition binding to affinity matrix in mixed human/mouse cell lysate, quantitative MS of species-specific peptides; settings: Experiment 2 (human/mouse 2); HL-60 + RAW 264.7 mixed lysate
endpoint.label: IC50 (nM)
Write the answer as a number in nM, unit excluded.

Name the recorded IC50 of CC(C)(C)NS(=O)(=O)c1cncc(-c2ccc3nc(N)nn3c2)c1 [compound 1] , assay system PIK3Cb (PI3Kbeta) (Mus musculus, UniProt Q8BTI9).
162

====

biological target: PIK3Cd (PI3Kδ) (Mus musculus, UniProt O35904); construct: Cell lysates from a human (HL60) and a mouse cell line (Raw 264.7) were prepared; endogenous in cells; host or cells: RAW264.7; test: Competition binding to affinity matrix in mixed human/mouse cell lysate, quantitative MS of species-specific peptides; conditions: Experiment 1 (human/mouse 1); HL-60 + RAW 264.7 mixed lysate
Sequence (O35904 whole entry): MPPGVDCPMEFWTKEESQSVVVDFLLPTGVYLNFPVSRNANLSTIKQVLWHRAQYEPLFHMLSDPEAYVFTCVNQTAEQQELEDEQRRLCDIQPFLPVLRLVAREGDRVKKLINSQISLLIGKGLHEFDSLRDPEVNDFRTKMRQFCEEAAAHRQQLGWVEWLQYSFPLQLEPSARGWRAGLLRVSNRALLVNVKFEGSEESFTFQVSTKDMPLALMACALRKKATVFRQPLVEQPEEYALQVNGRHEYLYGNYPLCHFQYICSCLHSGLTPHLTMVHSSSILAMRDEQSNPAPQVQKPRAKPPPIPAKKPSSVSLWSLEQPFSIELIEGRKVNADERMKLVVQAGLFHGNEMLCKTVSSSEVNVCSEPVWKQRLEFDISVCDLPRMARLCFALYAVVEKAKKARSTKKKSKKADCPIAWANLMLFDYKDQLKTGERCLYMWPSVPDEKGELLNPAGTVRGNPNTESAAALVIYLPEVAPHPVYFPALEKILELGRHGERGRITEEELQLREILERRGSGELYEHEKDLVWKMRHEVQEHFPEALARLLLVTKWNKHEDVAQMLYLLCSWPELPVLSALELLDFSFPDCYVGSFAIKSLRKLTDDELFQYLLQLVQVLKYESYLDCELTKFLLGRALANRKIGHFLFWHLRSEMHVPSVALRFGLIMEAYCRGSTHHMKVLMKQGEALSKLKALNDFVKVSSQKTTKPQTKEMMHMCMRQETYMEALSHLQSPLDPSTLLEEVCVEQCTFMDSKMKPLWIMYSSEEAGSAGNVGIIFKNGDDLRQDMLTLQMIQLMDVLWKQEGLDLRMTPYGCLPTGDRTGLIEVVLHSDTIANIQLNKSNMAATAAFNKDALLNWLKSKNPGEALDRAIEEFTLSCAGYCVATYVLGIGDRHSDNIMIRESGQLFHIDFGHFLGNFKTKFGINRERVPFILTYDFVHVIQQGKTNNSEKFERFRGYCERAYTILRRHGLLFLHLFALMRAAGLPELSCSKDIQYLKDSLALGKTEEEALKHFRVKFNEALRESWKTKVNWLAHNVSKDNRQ
Sequence (P26450 whole entry partner): as the sequence (P26450 whole entry partner) above
endpoint.label: IC50 (nM)
Note: unit nM is implicit; provide only the numeric part.

Report measured IC50; entry is CC(C)(C)NS(=O)(=O)c1cncc(-c2ccc3nc(N)nn3c2)c1
1310

====

target: PIK4Cb (Homo sapiens, UniProt Q9UBF8); construct: Cell lysates from a human (HL60) and a mouse cell line (Raw 264.7) were prepared; endogenous in cells; host or cells: HL60; experiment: Competition binding to affinity matrix in mixed human/mouse cell lysate, quantitative MS of species-specific peptides; conditions: Experiment 2 (human/mouse 2); HL-60 + RAW 264.7 mixed lysate
Sequence (Q9UBF8 whole entry): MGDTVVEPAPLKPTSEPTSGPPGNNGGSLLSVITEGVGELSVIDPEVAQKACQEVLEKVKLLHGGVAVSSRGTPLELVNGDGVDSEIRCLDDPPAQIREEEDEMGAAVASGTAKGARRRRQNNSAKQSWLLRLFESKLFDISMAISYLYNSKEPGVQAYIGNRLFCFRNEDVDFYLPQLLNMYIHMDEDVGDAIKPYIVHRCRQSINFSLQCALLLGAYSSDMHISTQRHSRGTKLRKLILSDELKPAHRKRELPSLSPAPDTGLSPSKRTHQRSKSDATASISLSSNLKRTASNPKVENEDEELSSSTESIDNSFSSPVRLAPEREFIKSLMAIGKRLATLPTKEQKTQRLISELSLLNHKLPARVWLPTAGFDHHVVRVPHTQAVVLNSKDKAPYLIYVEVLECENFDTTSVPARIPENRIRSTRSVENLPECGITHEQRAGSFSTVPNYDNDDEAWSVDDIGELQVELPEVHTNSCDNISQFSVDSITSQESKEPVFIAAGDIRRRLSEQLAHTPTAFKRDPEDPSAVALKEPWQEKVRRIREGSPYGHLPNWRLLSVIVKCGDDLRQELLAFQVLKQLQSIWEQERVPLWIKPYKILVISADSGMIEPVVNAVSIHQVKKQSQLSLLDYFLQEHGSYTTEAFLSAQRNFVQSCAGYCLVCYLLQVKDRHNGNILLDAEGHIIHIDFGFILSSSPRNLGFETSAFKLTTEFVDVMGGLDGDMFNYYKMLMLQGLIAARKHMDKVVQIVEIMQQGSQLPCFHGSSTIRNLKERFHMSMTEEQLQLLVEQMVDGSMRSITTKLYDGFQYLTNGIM
endpoint.label: IC50

For the compound CC(C)(C)NS(=O)(=O)c1cncc(-c2ccc3nc(N)nn3c2)c1 , report IC50.
≥ 3000 nM

====

target: PIK3Ca (Homo sapiens, UniProt P42336); construct: Cell lysates from a human (HL60) and a mouse cell line (Raw 264.7) were prepared; endogenous in cells; host or cells: HL60; assay: Competition binding to affinity matrix in mixed human/mouse cell lysate, quantitative MS of species-specific peptides; conditions: Experiment 2 (human/mouse 2); HL-60 + RAW 264.7 mixed lysate
endpoint.label: pIC50
Schema: pIC50 number; meaning minus log10 of the concentration expressed in molar units.

Return pIC50 (reported value) for this molecule: CC(C)(C)NS(=O)(=O)c1cncc(-c2ccc3nc(N)nn3c2)c1
5.59

====

molecular target: PIK3Cg (PI3Kγ) (Homo sapiens); construct: Cell lysates from a human (HL60) and a mouse cell line (Raw 264.7) were prepared; endogenous in cells; host or cells: HL60; test: Competition binding to affinity matrix in mixed human/mouse cell lysate, quantitative MS of species-specific peptides; details: Experiment 2 (human/mouse 2); HL-60 + RAW 264.7 mixed lysate
endpoint.label: pIC50
Interpret pIC50 as the negative base-10 log of the concentration measured in mol/L.

Report measured pIC50; entry is CC(C)(C)NS(=O)(=O)c1cncc(-c2ccc3nc(N)nn3c2)c1 [compound 1]
7.57

====

target: PIK3C3 (Homo sapiens); construct: Cell lysates from a human (HL60) and a mouse cell line (Raw 264.7) were prepared; endogenous in cells; assay: Competition binding to affinity matrix in mixed human/mouse cell lysate, quantitative MS of species-specific peptides; settings: Experiment 1 (human/mouse 1); HL-60 + RAW 264.7 mixed lysate
endpoint.label: IC50

Give the observed IC50 of CC(C)(C)NS(=O)(=O)c1cncc(-c2ccc3nc(N)nn3c2)c1 for PIK3C3 (Homo sapiens).
≥ 3000 nM

====

target: PIK3Cd (PI3Kδ) (Homo sapiens, UniProt O00329); construct: Cell lysates from a human (HL60) and a mouse cell line (Raw 264.7) were prepared; endogenous in cells; host or cells: HL60; test: Competition binding to affinity matrix in mixed human/mouse cell lysate, quantitative MS of species-specific peptides; details: Experiment 1 (human/mouse 1); HL-60 + RAW 264.7 mixed lysate
endpoint.label: pIC50
Units for pIC50: none; it is -log10 of a concentration expressed in mol/L.

Would you please give the reported pIC50 of CC(C)(C)NS(=O)(=O)c1cncc(-c2ccc3nc(N)nn3c2)c1 with PIK3Cd (PI3Kδ) (Homo sapiens, UniProt O00329)?
5.97

====

target: PIK4Ca (Homo sapiens); construct: Cell lysates from a human (HL60) and a mouse cell line (Raw 264.7) were prepared; endogenous in cells; host or cells: HL60; experiment: Competition binding to affinity matrix in mixed human/mouse cell lysate, quantitative MS of species-specific peptides; conditions: Experiment 2 (human/mouse 2); HL-60 + RAW 264.7 mixed lysate
endpoint.label: IC50

Output measured IC50 for this item: CC(C)(C)NS(=O)(=O)c1cncc(-c2ccc3nc(N)nn3c2)c1
≥ 3 µM

====

target: PIK3R4 (Homo sapiens, UniProt Q99570); construct: Cell lysates from a human (HL60) and a mouse cell line (Raw 264.7) were prepared; endogenous in cells; assay: Competition binding to affinity matrix in mixed human/mouse cell lysate, quantitative MS of species-specific peptides; conditions: Experiment 1 (human/mouse 1); HL-60 + RAW 264.7 mixed lysate
pIC50: −log10 of the molar value.
endpoint.label: pIC50

Supply recorded pIC50 for CC(C)(C)NS(=O)(=O)c1cncc(-c2ccc3nc(N)nn3c2)c1 [compound 1] here.
≤ 5.52

====

target: PIK3Cg (PI3Kγ) (Mus musculus, UniProt Q9JHG7); construct: Cell lysates from a human (HL60) and a mouse cell line (Raw 264.7) were prepared; endogenous in cells; host or cells: RAW264.7; test: Competition binding to affinity matrix in mixed human/mouse cell lysate, quantitative MS of species-specific peptides; conditions: Experiment 1 (human/mouse 1); HL-60 + RAW 264.7 mixed lysate
Sequence (Q9JHG7 whole entry): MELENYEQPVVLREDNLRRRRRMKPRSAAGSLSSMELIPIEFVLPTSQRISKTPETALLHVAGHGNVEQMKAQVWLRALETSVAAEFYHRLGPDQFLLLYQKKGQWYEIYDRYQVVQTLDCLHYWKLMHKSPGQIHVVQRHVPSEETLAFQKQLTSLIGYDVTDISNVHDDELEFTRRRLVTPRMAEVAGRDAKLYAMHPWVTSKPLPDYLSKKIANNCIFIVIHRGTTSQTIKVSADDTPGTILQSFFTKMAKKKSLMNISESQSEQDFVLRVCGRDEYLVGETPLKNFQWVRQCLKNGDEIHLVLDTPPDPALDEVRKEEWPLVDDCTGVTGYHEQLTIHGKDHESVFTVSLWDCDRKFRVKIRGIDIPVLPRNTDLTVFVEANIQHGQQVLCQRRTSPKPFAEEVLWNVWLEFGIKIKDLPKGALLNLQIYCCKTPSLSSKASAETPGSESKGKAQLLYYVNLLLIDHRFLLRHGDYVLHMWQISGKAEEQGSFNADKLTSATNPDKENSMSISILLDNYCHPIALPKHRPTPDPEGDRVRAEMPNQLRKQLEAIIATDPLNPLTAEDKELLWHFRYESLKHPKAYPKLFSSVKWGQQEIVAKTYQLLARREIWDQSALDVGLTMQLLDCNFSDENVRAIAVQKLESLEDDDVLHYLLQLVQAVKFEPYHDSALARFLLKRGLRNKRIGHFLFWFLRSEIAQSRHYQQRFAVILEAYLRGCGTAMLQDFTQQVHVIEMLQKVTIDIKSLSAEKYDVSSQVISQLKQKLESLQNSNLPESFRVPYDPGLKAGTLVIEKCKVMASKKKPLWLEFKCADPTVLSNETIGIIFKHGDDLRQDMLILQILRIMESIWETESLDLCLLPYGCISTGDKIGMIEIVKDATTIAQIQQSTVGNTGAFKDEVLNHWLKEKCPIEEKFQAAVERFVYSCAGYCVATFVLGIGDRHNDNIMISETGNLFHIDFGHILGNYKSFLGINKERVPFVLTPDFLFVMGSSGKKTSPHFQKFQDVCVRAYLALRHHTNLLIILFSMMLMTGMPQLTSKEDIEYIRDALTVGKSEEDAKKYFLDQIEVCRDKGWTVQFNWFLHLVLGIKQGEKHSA
endpoint.label: IC50
Answer format: number, then unit.

Report IC50 for CC(C)(C)NS(=O)(=O)c1cncc(-c2ccc3nc(N)nn3c2)c1
57 nM

====

molecular target: PIK3Cg (PI3Kγ) (Homo sapiens, UniProt P48736); construct: Cell lysates from a human (HL60) and a mouse cell line (Raw 264.7) were prepared; endogenous in cells; host or cells: HL60; assay: Competition binding to affinity matrix in mixed human/mouse cell lysate, quantitative MS of species-specific peptides; details: Experiment 1 (human/mouse 1); HL-60 + RAW 264.7 mixed lysate
endpoint.label: pIC50
Interpret pIC50 as the negative base-10 log of the concentration measured in mol/L.

For PIK3Cg (PI3Kγ) (Homo sapiens, UniProt P48736), give the measured pIC50 of the entry CC(C)(C)NS(=O)(=O)c1cncc(-c2ccc3nc(N)nn3c2)c1
7.66

====

biological target: PIK3Ca (Homo sapiens, UniProt P42336); construct: Cell lysates from a human (HL60) and a mouse cell line (Raw 264.7) were prepared; endogenous in cells; host or cells: HL60; test: Competition binding to affinity matrix in mixed human/mouse cell lysate, quantitative MS of species-specific peptides; details: Experiment 1 (human/mouse 1); HL-60 + RAW 264.7 mixed lysate
endpoint.label: pIC50
Kindly note that pIC50 refers to -log10 of the concentration in mol/L and answer with the value alone.

Kindly indicate its recorded pIC50. Item: CC(C)(C)NS(=O)(=O)c1cncc(-c2ccc3nc(N)nn3c2)c1
5.62
